Entry source: PubChem BioAssay (NCI)

tested on: HCT-15 colon; experiment: NCI tumour cell line growth inhibition, 48 h; in the data active means GI50 below about 0.43 µM; inactive means the rest
Classes used: T for active, F for inactive

- COc1ccc(/C=N/Nc2nc(N)nc(N3CCCC3)c2C#N)cc1: F
- C=C(C)[C@@H]1CC[C@]2(COC(C)=O)CC[C@]3(C)[C@H](CC[C@@H]4[C@@]5(C)CCCN(C(C)=O)C(C)(C)[C@@H]5CC[C@]43C)[C@@H]12: F
- N#Cc1c(-c2ccccc2)n([O-])c2ccccc2[n+]1=O: F
- NS(=O)(=O)c1ccc(Nc2ncc(-c3ccccc3)o2)cc1: F
- CCOC(=O)c1ccc(NC(=O)Nc2nccs2)cc1: T

* * *

Catalogue of compounds with associated TGI
system: SW-620 colon; assay: NCI tumour cell line growth inhibition, 48 h
Observation Type: TGI

• O=C1c2ccccc2C(=O)N1CCn1nc(-c2ccccc2)cc(-c2ccccc2)c1=O = > 100 µM
• Cc1ccc(NS(=O)(=O)c2ccc(-c3cnc(C4CC4)o3)cc2)cc1C = > 72.2 µM
• CC1(C)C[C@H]2[C@H](O)C(CO)=C3C(=O)[C@@H](O)[C@]3(C)[C@H]2C1 = > 100 µM
• Clc1cccc(Cl)c1C(Nc1nncs1)Nc1nncs1 = > 100 µM
• CN(CCO)C1CCN(c2ccc(Nc3ncc4c5ccnc(F)c5n(C5CCCC5)c4n3)nc2)CC1 = 2.21 µM
• c1ccc(C(c2ccccc2)c2ccncc2)cc1 = > 100 µM
• CC1(C)[C@@H](Cn2nnc3c(N)ncnc32)CC[C@@]1(C)CO = > 100 µM
• CN(N=O)C(=O)N(N)CCCCC(NC(=O)OCc1ccccc1)C(=O)OCc1ccccc1 (configuration not stated) = > 100 µM
• O=C(/C=C\c1ccc(-c2ccccc2)cc1)c1cccs1 = > 100 µM
• Fc1cc(-c2cc(-c3ccccc3)n[nH]2)c(Cl)cc1Cl = > 100 µM
• CC(=O)NC(C)(C)C1CC=C(C)/C(=N\O)C1 (configuration not stated) = > 100 µM
• CC(SC(=S)Nc1cccc(F)c1)C(=O)O (configuration not stated) = > 100 µM
• C[C@]12CCc3nonc3C1CC[C@@H]1C2CC[C@]2(C)C(=O)/C(=N\O)CC12 (some centres not stated) = > 100 µM
• COc1ccc(/C=C2\CS(=O)(=O)C/C(=C\c3ccc(OC)cc3)C2=O)cc1 = 3.37 µM
• CN=c1oc2ccccc2cc1C(N)=O = > 100 µM
• C=C(C)[C@@H]1CC[C@]2(COC(C)=O)CC[C@]3(C)[C@H](CC[C@@H]4[C@@]5(C)CCCN(C(C)=O)C(C)(C)[C@@H]5CC[C@]43C)[C@@H]12 = 3.47 µM
• Cn1cc2ccccc2c1-c1nc(F)nc(Oc2ccc3c(c2)CC[C@@H]2C3CC[C@@]3(C)C2CC[C@@H]3O)n1 (some centres not stated) = 17.6 µM

* * *

system: SK-MEL-5 melanoma; assay: NCI tumour cell line growth inhibition, 48 h; in the data active = GI50 below about 0.43 µM; inactive = the rest
Classes used: true = active, false = inactive

- CN1CCN(Cc2ccc(NC(=O)c3nc4ccc5[nH]ncc5c4c4c3CCCC4)cc2C(F)(F)F)CC1: false
- Cc1nn(-c2ccccc2)c(-n2ccnc2)c1/C=N/Nc1nc(-c2ccc(Cl)c(Cl)c2)cs1: false
- O=C(C(Br)C(Br)c1ccccc1)C(Br)C(Br)c1ccccc1 (configuration not stated): false
- CNCCCNc1c2cc(OC)ccc2nc2cccc([N+](=O)[O-])c12: true
- Cc1cc(I)cc(CN(C)CCN(C)C)c1O: false
- CCCn1c2c(c3ccccc3c1=O)C(=O)c1cc3c(cc1-2)OCO3: false
- CCC(/C=C(C)/C=C/C(=O)c1c(O)c(-c2ccc(O)cc2)c[nH]c1=O)CO (configuration not stated): false
